The origin of these recorded values is PubChem BioAssay (NCI).

Tested on: SK-MEL-28 melanoma
assay comment: NCI tumour cell line growth inhibition, 48 h

{"compound": "NS(=O)(=O)c1ccc(N2N=C(c3cccs3)CC2c2ccccc2O)cc1 (stereo unspecified)", "GI50": "2120 nM"}
{"compound": "NCCSC(C[N+](=O)[O-])c1ccccc1Cl (stereo unspecified)", "GI50": "2080 nM"}
{"compound": "Nc1ccccc1C#C/C=C\\C#Cc1ccccc1F", "GI50": "18000 nM"}
{"compound": "Cc1ccc(S(=O)(=O)Nc2cc(Sc3ccccc3)c(O)c3ccccc23)cc1", "GI50": "4400 nM"}
{"compound": "O=C(CN1C(=O)S/C(=C\\C(Cl)=C\\c2ccccc2)C1=O)NCCCn1ccnc1", "GI50": "1850 nM"}
{"compound": "CCC(=O)c1c(C(F)(F)F)n([O-])c2ccccc2[n+]1=O", "GI50": "8840 nM"}
{"compound": "COc1cc2nc(N3CCC[C@@H](NC4=CC(=O)c5ccccc5C4=O)C3)nc(N)c2cc1OC", "GI50": "1720 nM"}
{"compound": "Cn1ncnc1C1c2n[nH]c(=O)c3cc(F)cc(c23)NC1c1ccc(F)cc1 (stereo unspecified)", "GI50": "> 100000 nM"}
{"compound": "COc1ccc(C=C2C(=O)NC(=O)NC2=O)cc1OCc1ccccc1", "GI50": "65.7 µg/mL"}
{"compound": "COC(=O)Nc1nc2ccc(S(=O)(=O)c3ccc(NC(=O)Nc4cc(C(F)(F)F)ccc4F)cc3)cc2[nH]1", "GI50": "> 25000 nM"}
{"compound": "CCc1c2c(nc3ccc(OCc4ccc(B5OC(C)(C)C(C)(C)O5)cc4)cc13)-c1cc3c(c(=O)n1C2)COC(=O)[C@]3(O)CC", "GI50": "604 nM"}
{"compound": "O=C1COCCN1c1ccc(NCc2cn(C(=O)c3ccc(Cl)cc3)c3ccccc23)cc1", "GI50": "17800 nM"}
{"compound": "Cc1cn(Cc2ccccc2CCl)c(=O)n(Cc2ccccc2CCl)c1=O", "GI50": "2210 nM"}
{"compound": "COc1ccc2c(c1OC)C(=O)O[C@@H]2[C@H]1c2c(c(Br)c3c(c2OC)OCO3)CCN1C", "GI50": "> 100000 nM"}
{"compound": "COc1ccc2c(c1)C=C1CSCC3=Cc4cc(OC)ccc4OC13O2", "GI50": "> 28200 nM"}
{"compound": "O=c1[nH]nc(-c2ccccc2)c2c(-c3ccccc3)onc12", "GI50": "793 nM"}
